# Measured on: hERG potassium channel (Homo sapiens (Human))
# Sequence (Q12809 whole entry): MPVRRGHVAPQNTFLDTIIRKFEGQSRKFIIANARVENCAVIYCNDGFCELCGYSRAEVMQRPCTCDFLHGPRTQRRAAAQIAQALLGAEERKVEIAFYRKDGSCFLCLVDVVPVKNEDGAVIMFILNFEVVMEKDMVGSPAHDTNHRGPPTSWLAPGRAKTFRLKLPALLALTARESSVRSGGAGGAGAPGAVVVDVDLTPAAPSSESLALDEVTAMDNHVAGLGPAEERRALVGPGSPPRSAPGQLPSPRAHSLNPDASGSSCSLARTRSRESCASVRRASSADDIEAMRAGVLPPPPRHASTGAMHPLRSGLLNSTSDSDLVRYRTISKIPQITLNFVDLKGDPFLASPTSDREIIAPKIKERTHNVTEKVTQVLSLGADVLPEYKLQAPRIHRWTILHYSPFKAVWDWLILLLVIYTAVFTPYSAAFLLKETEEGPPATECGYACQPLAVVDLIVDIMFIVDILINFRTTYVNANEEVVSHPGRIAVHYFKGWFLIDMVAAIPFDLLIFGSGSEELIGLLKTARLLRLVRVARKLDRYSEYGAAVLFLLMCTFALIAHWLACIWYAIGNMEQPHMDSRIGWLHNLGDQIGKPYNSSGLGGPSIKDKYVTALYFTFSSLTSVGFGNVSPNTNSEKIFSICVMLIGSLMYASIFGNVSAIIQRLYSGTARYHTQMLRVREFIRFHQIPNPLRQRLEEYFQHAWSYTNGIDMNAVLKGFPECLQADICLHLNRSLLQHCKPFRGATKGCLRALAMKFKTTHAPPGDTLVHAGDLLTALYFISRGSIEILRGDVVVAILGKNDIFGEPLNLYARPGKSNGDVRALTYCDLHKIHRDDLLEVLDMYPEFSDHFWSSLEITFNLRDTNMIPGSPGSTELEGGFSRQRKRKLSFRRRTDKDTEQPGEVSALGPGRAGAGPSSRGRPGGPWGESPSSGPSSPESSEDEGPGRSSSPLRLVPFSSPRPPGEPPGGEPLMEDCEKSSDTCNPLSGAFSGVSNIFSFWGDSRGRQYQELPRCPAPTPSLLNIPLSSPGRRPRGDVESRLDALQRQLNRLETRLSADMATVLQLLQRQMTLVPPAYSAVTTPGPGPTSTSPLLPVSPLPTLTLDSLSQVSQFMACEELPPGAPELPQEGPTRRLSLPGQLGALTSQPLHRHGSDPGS
# Test summary: hERG potassium channel toxicity assay (hERG patch clamp)
# Format: cell-based
# Conditions used: human; hERG, at maximum concentration 40 μM; read-out: Inhibition rate (%)
# cutoff 50% applies to inhibition at 40 µM; >= gives Criterion met, < gives Criterion not met

Solved entries:
# Compound, Measured on, Answer label
measured = [
    ("COc1ccc(-c2ccn3c(CC4CC4(F)F)nnc3c2Cl)cc1F (stereo not drawn)", "hERG potassium channel (Homo sapiens (Human))", "Criterion met"),
    ("COc1ccc(-c2ccn3c(CC4CC4(F)F)nnc3c2)cc1F (stereo not drawn)", "hERG potassium channel (Homo sapiens (Human))", "Criterion not met"),
    ("Cc1cc(F)ccc1-c1ccn2c(CC3CC3(F)F)nnc2c1Cl (stereo not drawn)", "hERG potassium channel (Homo sapiens (Human))", "Criterion met"),
    ("Fc1cccc(-c2ccn3c(CC4CC4(F)F)nnc3c2)c1 (stereo not drawn)", "hERG potassium channel (Homo sapiens (Human))", "Criterion not met"),
    ("FC1(F)CC1Cc1nnc2cc(-c3cccc4cccnc34)ccn12 (stereo not drawn)", "hERG potassium channel (Homo sapiens (Human))", "Criterion not met"),
    ("Cc1cccc(-c2ccn3c(CC4CC4(F)F)nnc3c2)c1 (stereo not drawn)", "hERG potassium channel (Homo sapiens (Human))", "Criterion not met"),
]

## Task Can CC(C)(O)c1ccc(-c2ccn3c(CC4CC4(F)F)nnc3c2)cc1 (stereo not drawn) be said to have inhibition at 40 µM at or above 50%?
## Result Criterion met

## Task Can COC(=O)c1ccc(-c2ccn3c(CC4CC4(F)F)nnc3c2)c(F)c1 (stereo not drawn) be said to have inhibition at 40 µM at or above 50%?
## Result Criterion met

## Task Can COC(=O)c1ccc(-c2ccn3c(CC4CC4(F)F)nnc3c2Cl)c(Cl)c1 (stereo not drawn) be said to have inhibition at 40 µM at or above 50%?
## Result Criterion met

## Task Can Fc1cccc(-c2ccn3c(CC4CC4(F)F)nnc3c2Cl)c1 (stereo not drawn) be said to have inhibition at 40 µM at or above 50%?
## Result Criterion met

## Task Can FC1(F)CC1Cc1nnc2cc(-c3ccc4c(c3)OCO4)ccn12 (stereo not drawn) be said to have inhibition at 40 µM at or above 50%?
## Result Criterion not met

## Task Can Fc1ccc(-c2ccn3c(CC4CC4(F)F)nnc3c2)cc1 (stereo not drawn) be said to have inhibition at 40 µM at or above 50%?
## Result Criterion met

## Task Can FC1(F)CC1Cc1nnc2cc(-c3ccc4c(c3)CCO4)ccn12 (stereo not drawn) be said to have inhibition at 40 µM at or above 50%?
## Result Criterion not met

## Task Can FC1(F)CC1Cc1nnc2c(Cl)c(-c3ccc4c(c3)CCO4)ccn12 (stereo not drawn) be said to have inhibition at 40 µM at or above 50%?
## Result Criterion met

---

Quick reference for EC50 among some compounds
# Measured on: mGluR2 (Homo sapiens (Human), UniProt Q14416)
# Sequence (Q14416 19-872): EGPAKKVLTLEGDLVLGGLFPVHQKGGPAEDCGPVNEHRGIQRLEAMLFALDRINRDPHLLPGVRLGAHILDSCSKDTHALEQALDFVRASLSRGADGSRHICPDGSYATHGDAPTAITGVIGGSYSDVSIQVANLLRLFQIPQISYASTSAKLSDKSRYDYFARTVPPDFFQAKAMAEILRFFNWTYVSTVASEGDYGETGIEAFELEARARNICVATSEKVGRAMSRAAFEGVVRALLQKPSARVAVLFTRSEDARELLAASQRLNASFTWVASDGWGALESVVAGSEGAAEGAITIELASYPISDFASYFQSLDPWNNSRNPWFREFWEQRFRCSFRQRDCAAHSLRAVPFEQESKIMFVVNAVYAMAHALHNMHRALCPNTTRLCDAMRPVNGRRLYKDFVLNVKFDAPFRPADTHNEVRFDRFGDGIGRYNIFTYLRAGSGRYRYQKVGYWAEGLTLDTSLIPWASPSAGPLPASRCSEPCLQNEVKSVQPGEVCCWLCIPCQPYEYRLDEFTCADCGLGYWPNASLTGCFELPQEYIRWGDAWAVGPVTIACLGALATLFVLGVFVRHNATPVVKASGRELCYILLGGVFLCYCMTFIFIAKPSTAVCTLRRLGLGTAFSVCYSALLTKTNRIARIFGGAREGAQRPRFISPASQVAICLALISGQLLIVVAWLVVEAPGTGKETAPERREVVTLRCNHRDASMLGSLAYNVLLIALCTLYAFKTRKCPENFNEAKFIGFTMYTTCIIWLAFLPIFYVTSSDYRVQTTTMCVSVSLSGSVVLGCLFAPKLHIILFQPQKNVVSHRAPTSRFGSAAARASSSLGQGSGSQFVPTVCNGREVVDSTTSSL
# Test summary: In vitro activity test for mGluR2 (HDB Fluo-8 calcium fluorescence, HEK/mGluR2 cell line)
# Source text: Experimental materials: HEK/mGluR2 cell line (human […] transfected HEK cell line), DMEM (FBS) medium, positive control LY487379 (purchased from sigma; CAS: to 352317-17-1) Experimental instrument: FLIPR Tetra real-time fluorescence imaging analysis system Experimental method: HDB Fluo-8 calcium fluorescence detection method […]
Give the value, in units of µM, as a plain number.

Check out these entries, answers already filled in.
# Compound, Observed measurement
records = [
    ("COC(=O)c1ccc(-c2ccn3c(CC4CC4(F)F)nnc3c2Cl)c(Cl)c1 (centres unmarked)", 0.23),
    ("Cc1cccc(-c2ccn3c(CC4CC4(F)F)nnc3c2)c1 (centres unmarked)", 0.143),
    ("COC(=O)c1ccc(-c2ccn3c(CC4CC4(F)F)nnc3c2Cl)c(F)c1 (centres unmarked)", 0.0879),
]

## Task So what EC50 did Cc1cc(-c2ccn3c(CC4CC4(F)F)nnc3c2)ccc1F (centres unmarked) get with mGluR2 (Homo sapiens (Human), UniProt Q14416)?
## Result 0.868

## Task So what EC50 did COc1ccc(-c2ccn3c(CC4CC4(F)F)nnc3c2)cc1F (centres unmarked) get with mGluR2 (Homo sapiens (Human), UniProt Q14416)?
## Result 0.849
